Where do these numbers come from? They come from patent US8309563B2.

System: BT-474: Human Breast Cancer Cell
Assay: Inhibition of cell proliferation, SRB method, BT-474 cells, 5 days
Type: cell-based
Details: 120 h, Logit method, read-out: BT474 IC50
pIC50: −log10 of the molar value.
QUANTITY MEASURED: pIC50

Examples with answers:
>>> print(df.to_string())
                                   molecule  numeric_readout
0  COc1cc2ncnc(Nc3ccc(OCc4cccc(F)c4)c(Cl)c3)c2cc1OC [Example 21]             6.72
1  OCc1cccc(-c2ccc3ncnc(Nc4ccc(OCc5cccc(F)c5)c(Cl)c4)c3c2)c1 [Example 24]             7.07

(a) Cc1ccc(S(=O)(=O)Nc2ccc3ncnc(Nc4ccc(OCc5cccc(F)c5)c(Cl)c4)c3c2)cc1 [Example 9]
(b) C=CC(=O)Nc1ccc2ncnc(Nc3ccc(OCc4cccc(F)c4)c(Cl)c3)c2c1 [Example 8]
# return whichever of a and b has the smaller pIC50 Refer to your chosen entry by its label in the reply.
a

====

Test system: BT-474: Human Breast Cancer Cell
Assay: Inhibition of cell proliferation, SRB method, BT-474 cells, 5 days
Assay type: cell-based
Details: 120 h, Logit method, read-out: BT474 IC50
QUANTITY MEASURED: IC50 (nM)

>>> print(df.to_string())
                    structure_smiles_string  display_unit  numeric_readout
0  Fc1cccc(COc2ccc(Nc3ncnc4ccc(OCCCN5CCOCC5)cc34)cc2Cl)c1            nM               79
1  COCCOc1ccc2ncnc(Nc3ccc(OCc4cccc(F)c4)c(Cl)c3)c2c1            nM               88

(I) CC(=O)OCc1cccc(-c2ccc3ncnc(Nc4ccc(OCc5cccc(F)c5)c(Cl)c4)c3c2)c1
(II) COc1cc2ncnc(Nc3ccc(OCc4cccc(F)c4)c(Cl)c3)c2cc1OCCCN1CCOCC1
Kindly identify the item with the lower IC50 figure among these two: I and II Indicate your choice by writing its label.
I

====

System: A431 cells (human epidermoid squamous carcinoma cell)
Test: Anti-tumor experiment, improved MTT method, A431 cells, 72 h
Type: cell-based
Settings: A431 cells, * = two results from two experiments, read-out: A431 IC50
pIC50: −log10 of the molar value.
QUANTITY MEASURED: pIC50

>>> print(df.to_string())
                                   compound  quantity_measured  numeric_readout
0  COCCOc1ccc2ncnc(Nc3ccc(OCc4cccc(F)c4)c(Cl)c3)c2c1 [Example 19]              pIC50             5.77

(I) OCc1ccc(-c2ccc3ncnc(Nc4ccc(OCc5cccc(F)c5)c(Cl)c4)c3c2)o1 [Example 27]
(II) C=CC(=O)Nc1ccc2ncnc(Nc3ccc(OCc4cccc(F)c4)c(Cl)c3)c2c1 [Example 8]
I need your help: which of the pair I , II has higher pIC50? The response must carry the label of the picked entry.
II

====

Test system: BT-474: Human Breast Cancer Cell
Experiment: Inhibition of cell proliferation, SRB method, BT-474 cells, 5 days
Type: cell-based
Settings: 120 h, Logit method, read-out: BT474 IC50
Description: 2. Cell Line: BT-474: Human Breast Cancer Cell The cells were incubated with compounds of various concentrations (10-0.001 μm individually) for 5 days. The inhibition of cell proliferation was tested according to the SRB method, and the inhibitory rate was figure out. According to the inhibitory rate, the IC50 was calculated by the Logit method. The anti-tumor activities in vitro were compared.
QUANTITY MEASURED: IC50 (µM)

In [3]: df
Out[3]:
                    structure_smiles_string  numeric_readout
0  COCCOCc1cccc(-c2ccc3ncnc(Nc4ccc(OCc5cccc(F)c5)c(Cl)c4)c3c2)c1             6.63
1  OCc1ccc(-c2ccc3ncnc(Nc4ccc(OCc5cccc(F)c5)c(Cl)c4)c3c2)o1            0.023
2  CC(=O)Oc1ccc2ncnc(Nc3ccc(OCc4cccc(F)c4)c(Cl)c3)c2c1            0.043

(a) COc1ccc(-c2ccc3ncnc(Nc4ccc(OCc5cccc(F)c5)c(Cl)c4)c3c2)cc1
(b) CS(=O)(=O)OCc1ccc(-c2ccc3ncnc(Nc4ccc(OCc5cccc(F)c5)c(Cl)c4)c3c2)o1
(c) C=CC(=O)Nc1cc2c(Nc3ccc(OCc4cccc(F)c4)c(Cl)c3)ncnc2cc1OC
Please put the entries in order of rising IC50. Lab note: final answer is the ordered label list.
c, b, a
